B1: FUT8 (parent)
chain: YPSYKVREKIETVKYPTYPEAEK

Variants of: B1
Protocol Notes: protein stability index of a GFP-peptide fusion (GPS, HEK-293T) (PSI 1-6); higher = more stable;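 also: lentivirally expressed fusions sorted by FACS into six bins by GFP to DsRed ratio, PSI derived from sequencing read proportions per bin multiplied by bin number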
Test Conditions: c terminus: native
# binarize protein stability index: threshold 4 inclusive, high side 1.0, low side 0.0

Reference set, count: 10
>>> print(df.to_string())
   alteration  classification
0         P2H             0.0
1        I10D             1.0
2         S3F             0.0
3         K5F             0.0
4         V6D             1.0
5        P19F             0.0
6         K9H             0.0
7         K5I             1.0
8         P2M             0.0
9        K14L             0.0

// inclusive: protein stability index at least 4? input: Y15T
0.0

What do we get for E22T ?
0.0

Here is the next variant: K14V
0.0

Can you handle Y4S next?
1.0

All figures here come from the supplement of paper PMC10567573.
